- assay text: Pharmacokinetics in whole blood, Sprague-Dawley rats
- condition details: male, Sprague-Dawley, rat, whole blood, po, 300 mg/kg, Whole Blood Conc. of compound 2, Sprague-Dawley rats, single 300 mg/kg RE-024-02 PO, time 2, LLOQ 3 ng/mL
property name: concentration at 2 h (ng/mL)
Just the number please, in ng/mL, no unit attached.

[in] concentration at 2 h lookup needed for COC(=O)CCNC(=O)[C@@H]1OP(=O)(O)OCC1(C)C , thanks.
[out] 76.2

----------
- assay text: in vivo
- condition details: male, C57Bl6, mouse, po, 700 mg/kg, PA Concentration in Mouse Striatal Dialysate (Corrected for Dilution)
property name: concentration at 0 h (nM)
Just the number please, in nM, no unit attached.

[in] concentration at 0 h lookup needed for CC(C)(CO)[C@@H](O)C(=O)NCCC(=O)O [PA, pantothenate] , thanks.
[out] 52.8

----------
- assay text: Pharmacokinetics in whole blood, cynomolgus monkeys
- condition details: male, cynomolgus monkey, in vivo, 300 mg/kg, Fosmetpantotenate Mean Conc., male cynomolgus monkeys, fosmetpantotenate 300 mg/kg oral, blood, 0.333 hr
property name: concentration at 0.333 h (nM)
Just the number please, in nM, no unit attached.

[in] concentration at 0.333 h lookup needed for COC(=O)CCNC(=O)[C@H](O)C(C)(C)COP(=O)(N[C@@H](C)C(=O)OC)Oc1ccccc1 (mixture of isomers) [Fosmetpantotenate] , thanks.
[out] 550

----------
- assay text: Pharmacokinetics in whole blood, CD-1 mice
- condition details: male, CD-1, mouse, in vivo, 300 mg/kg, Conc., blood; fosmetpantotenate 300 mg/kg PO; 4 hr; individual animals
property name: concentration at 4 h (nM)
Just the number please, in nM, no unit attached.

[in] concentration at 4 h lookup needed for COC(=O)CCNC(=O)[C@H](O)C(C)(C)COP(=O)(N[C@@H](C)C(=O)OC)Oc1ccccc1 (mixture of isomers) [Fosmetpantotenate] , thanks.
[out] 1.03

----------
- assay text: Microdialysis (striatal dialysate and blood) in cynomolgus monkeys
- Type: in vivo, cynomolgus monkey
- condition details: cynomolgus, cynomolgus monkey, in vivo, po, 300 mg/kg
property name: AUC
Enter the number, and then the unit.

[in] AUC lookup needed for CC(C)(CO)[C@@H](O)C(=O)NCCC(=O)O [PA, pantothenate] , thanks.
[out] 9.34 µM·h

----------
- assay text: Pharmacokinetics in whole blood, CD-1 mice
- condition details: male, CD-1, mouse, in vivo, po, 100 mg/kg, Compound 1 Whole Blood Conc., CD-1 mice, 100 mg/kg RE-024-02 by PO, 0.333 hr, individual animals, LLOQ 0.6 ng/mL
property name: concentration at 0.333 h (ng/mL)
Just the number please, in ng/mL, no unit attached.

[in] concentration at 0.333 h lookup needed for COC(=O)CCNC(=O)[C@@H]1OP(=O)(N[C@@H](C)C(=O)OC)OCC1(C)C (stereo partly shown) , thanks.
[out] 0.8

----------
- assay text: Pharmacokinetics in whole blood, cynomolgus monkeys
- condition details: male, cynomolgus monkey, in vivo, 300 mg/kg, Fosmetpantotenate blood concentration, Cyno #2, male cynomolgus monkeys, fosmetpantotenate 300 mg/kg oral, blood, 1 hr
property name: concentration at 1 h (µM)
Just the number please, in µM, no unit attached.

[in] concentration at 1 h lookup needed for COC(=O)CCNC(=O)[C@H](O)C(C)(C)COP(=O)(N[C@@H](C)C(=O)OC)Oc1ccccc1 (mixture of isomers) [Fosmetpantotenate] , thanks.
[out] 27.4

----------
- assay text: Metabolic stability in monkey whole blood
- Format: in vitro ADME, cynomolgus monkey
- condition details: monkey blood, 5 μM, 37°C, 60 min
property name: half-life at 5 μM (min)
Just the number please, in min, no unit attached.

[in] half-life at 5 μM lookup needed for COC(=O)CCNC(=O)[C@H](O)C(C)(C)COP(=O)(N[C@@H](C)C(=O)OC)Oc1ccccc1 (mixture of isomers) [Fosmetpantotenate] , thanks.
[out] 41

----------
- assay text: Pharmacokinetics in whole blood, CD-1 mice
- condition details: male, CD-1, mouse, in vivo, 700 mg/kg, Fosmetpantotenate Mean Conc., male CD-1 mice, fosmetpantotenate 700 mg/kg oral, blood, 0.167 hr, mean, BQL <1.02 nM
property name: concentration at 0.167 h (nM)
Just the number please, in nM, no unit attached.

[in] concentration at 0.167 h lookup needed for COC(=O)CCNC(=O)[C@H](O)C(C)(C)COP(=O)(N[C@@H](C)C(=O)OC)Oc1ccccc1 (mixture of isomers) [Fosmetpantotenate] , thanks.
[out] 307

----------
- assay text: Pharmacokinetics in whole blood, CD-1 mice
- condition details: male, CD-1, mouse, in vivo, 300 mg/kg, Mean Conc., blood; fosmetpantotenate 300 mg/kg PO; 0.083 hr
property name: concentration at 0.083 h (nM)
Just the number please, in nM, no unit attached.

[in] concentration at 0.083 h lookup needed for COC(=O)CCNC(=O)[C@H](O)C(C)(C)COP(=O)(N[C@@H](C)C(=O)OC)Oc1ccccc1 (mixture of isomers) [Fosmetpantotenate] , thanks.
[out] 14.4

----------
- assay text: in vivo
- condition details: male, C57Bl6, mouse, po, 700 mg/kg, PA Concentration in Mouse Striatal Dialysate (Corrected for Dilution)
property name: concentration at 0.5 h (nM)
Just the number please, in nM, no unit attached.

[in] concentration at 0.5 h lookup needed for CC(C)(CO)[C@@H](O)C(=O)NCCC(=O)O [PA, pantothenate] , thanks.
[out] 65.1

----------
- assay text: Metabolic stability in rat liver microsomes
- Type: in vitro ADME
- condition details: pooled liver microsomes, pH 7.4, read-out: intrinsic clearance
property name: microsomal CLint at 1 μM (µL/min/mg)
Just the number please, in µL/min/mg, no unit attached.

[in] microsomal CLint at 1 μM lookup needed for COC(=O)CCNC(=O)[C@H](O)C(C)(C)COP(=O)(N[C@@H](C)C(=O)OC)Oc1ccccc1 (mixture of isomers) [Fosmetpantotenate] , thanks.
[out] 335
